# Tested on: THRa homodimer (NR concentration 90 nM)
# ASSAY METHOD TEXT: PBM binding z-score (relative to random genomic background probes); higher = stronger binding; sequences stand for … in GC…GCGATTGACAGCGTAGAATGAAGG
QUANTITY KIND: PBM binding z-score
Please give the numeric answer without any surrounding text.

[in] Reported PBM binding z-score, sequence ATCTCTAGGTAACCAAGTTCTGTGAATGCCGAAC : ____
[out] 0.76

[in] What would you report for AGTCAAAGTTCCTCTAGGTAACGTAAGATATGCT ?
[out] -0.0927

[in] What would you report for CTCGAAAGGTCGGTTGAGGGGAGTATACGGATAA ?
[out] -0.23

[in] What would you report for ACTTACGGGTCAACGAGGTTATAGCTCGCGTATA ?
[out] 1.02

[in] What would you report for ATATGTAGGTTACTTCCGGGTCATTCAGGCTATG ?
[out] 2.57

[in] What would you report for TGAATGAGGTTAGAGATCAGGGAACGTGGCGTCG ?
[out] 0.0858

[in] What would you report for ATCTCTAGGTAAGATTCAGTTCAGTGAAGAACGC ?
[out] 0.542

[in] What would you report for CCAACTGGGCCATTCAGAGGTCATTGATCATATG ?
[out] 1.3

[in] What would you report for TCATGTAGATCAAAGGTTAAGAAAGCCGAAGCCT ?
[out] -0.229

[in] What would you report for ACTATTAGTTGCGACGAGGGCAACCGATAGGTTG ?
[out] 0.3

[in] What would you report for TTACCAAGGTGAGCTGAGGTCGGTGATCCAACTC ?
[out] 1.25

[in] What would you report for GCTTGTAGAACAAGGTTAAGAAAGACTAAGCTAA ?
[out] -0.592

----------
# Tested on: RXRa homodimer (NR concentration 180 nM)
# ASSAY METHOD TEXT: PBM binding z-score (relative to random genomic background probes); higher = stronger binding; sequences stand for … in GC…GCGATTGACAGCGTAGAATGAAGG
Please mark YES if the recorded PBM binding z-score is equal to or greater than 3, and NO if it falls below.

[in] Threshold query (PBM binding z-score >= 3) on AATACAGGGTCATCGTAGGCCAGACTACGCACAG
[out] YES

[in] What would you report for GCGACTGGGGCAAAGCAGGTTACCAGAAGGTTGG ?
[out] NO

[in] What would you report for ACTCGGACGACAAAGGTCAGAGCTACGCCAGTGA ?
[out] YES

[in] What would you report for TCTTGTAGATAAAAGGTTAAGAAAGCCGAAGCCT ?
[out] NO

[in] What would you report for GCATATGGGTAATACAAGGTGAAAGTCCGATTGT ?
[out] NO

[in] What would you report for TCGAGTAGGTTACTAATGGGGCATTCAGCTTTCT ?
[out] NO

[in] What would you report for GCTGCCAGGTCAACTGATGGTCAGCTAAAGCTCG ?
[out] YES

[in] What would you report for ATCTCTAGGTAACAAGTTCAGTCAAAGAGAGGAC ?
[out] NO

[in] What would you report for TCATATAGGTACAAGGTGAAAGTCGGTGTGGTAA ?
[out] NO

[in] What would you report for AGTCAAATTTCAGGACGAGGTAACGTAAAGCACG ?
[out] NO

[in] What would you report for GCGACGGGGGCATCAGCAGGTTACCATAACTTAA ?
[out] YES
